Ref: patent US20210301025A1

- targetOrTestSystem: EGFR (form used in the assay not stated) (human, UniProt P00533 25-645, limits assumed)
- assayExplanation: ELISA, NEM conjugate, 500 nM
reportedEndpoint: binding relative to P54AR4-83v2 parent (ratio)
Numbers only, in ratio.

Endpoint output: binding relative to P54AR4-83v2 parent of P54AR4-83v2 G64C, NEM conjugate (designed binder, not shown: small tags and cut ends, N-ethyl maleimide (NEM) on Cys 64) LPAPKNLVVSEVTEDSARLSWDDPWAFYESFLIQYQESEKVGEAIVLTVPGSERSYDLTGLKPCTEYTVSIYGVHNVYKDTNMRGLPLSAIFTT . Value? 1.36

Data request, read-out binding relative to P54AR4-83v2 parent, for P54AR4-83v2 V77C, NEM conjugate (designed binder, not shown: small tags and cut ends, N-ethyl maleimide (NEM) on Cys 77) LPAPKNLVVSEVTEDSARLSWDDPWAFYESFLIQYQESEKVGEAIVLTVPGSERSYDLTGLKPGTEYTVSIYGVHNCYKDTNMRGLPLSAIFTT 0.03

Query (binder): P54AR4-83v2 T81C, NEM conjugate (designed binder, not shown: small tags and cut ends, N-ethyl maleimide (NEM) on Cys 81) LPAPKNLVVSEVTEDSARLSWDDPWAFYESFLIQYQESEKVGEAIVLTVPGSERSYDLTGLKPGTEYTVSIYGVHNVYKDCNMRGLPLSAIFTT ; field requested: binding relative to P54AR4-83v2 parent 1.02

New cases:
Can you share its binding relative to P54AR4-83v2 parent? I mean this binder: P54AR4-83v2 P50C, NEM conjugate (designed binder, not shown: small tags and cut ends, N-ethyl maleimide (NEM) on Cys 50) LPAPKNLVVSEVTEDSARLSWDDPWAFYESFLIQYQESEKVGEAIVLTVCGSERSYDLTGLKPGTEYTVSIYGVHNVYKDTNMRGLPLSAIFTT 0.97
